FYI, the data here is from PubChem BioAssay (NCI).

- System: SN12C renal
- protocol: NCI tumour cell line growth inhibition, 48 h; in the data active = GI50 below about 0.43 µM; inactive = the rest
In this exercise, the only acceptable responses are active, inactive

The following compounds have reported results that may help.
O=C(CCN1CCCC1)Nc1ccc2c(NCc3ccccc3)c3ccccc3nc2c1 :: active
C=C(C)[C@@H]1CCC=C2CC[C@]3(C)[C@H](CC[C@@H]4[C@@]5(C)CCCNC(C)(C)[C@@H]5CC[C@]43C)[C@H]21 :: inactive
COc1ccc2c(c1)nc(NNC(=O)c1cnccn1)c1cccn12 :: active
[2H]C([2H])([2H])NC(=O)c1nnc(NC(=O)C2CC2)cc1Nc1cccc(-c2ncn(C)n2)c1OC :: inactive
C=CC(=O)N1CCC(c2ccc(C(N)=O)c(-c3ccc(Oc4ccccc4)cc3)n2)CC1 :: inactive
NC(=N\N=C/c1ccc(O)cc1)/C(N)=N\N=C/c1ccc(O)cc1 :: inactive

Ask | Hello, I am checking results. What call was entered for `O=C1CCc2c(sc3[nH]c(=S)n(-c4cc(C(F)(F)F)cc(C(F)(F)F)c4)c(=O)c23)C1` ?
Reply | active

Ask | Hello, I am checking results. What call was entered for `COc1cc2c3c(n(CCCN)c(=O)c2cc1OC)-c1ccc([N+](=O)[O-])cc1C3=O` ?
Reply | inactive

Ask | Hello, I am checking results. What call was entered for `Fc1ccc(-c2ncn(C3CCNCC3)c2-c2ccnc(Oc3ccc4c(c3)OCO4)n2)cc1` ?
Reply | inactive
